List of inhibition at 10 µM values.
Target: Noradrenaline (NA) reuptake (Rattus norvegicus, UniProt Q63380)
Construct: synaptosomes are freshly isolated from areas of rat brain; from tissue; host or cells: rat hypothalamus synaptosomes (P2 fraction)
Sequence (Q63380 1-617): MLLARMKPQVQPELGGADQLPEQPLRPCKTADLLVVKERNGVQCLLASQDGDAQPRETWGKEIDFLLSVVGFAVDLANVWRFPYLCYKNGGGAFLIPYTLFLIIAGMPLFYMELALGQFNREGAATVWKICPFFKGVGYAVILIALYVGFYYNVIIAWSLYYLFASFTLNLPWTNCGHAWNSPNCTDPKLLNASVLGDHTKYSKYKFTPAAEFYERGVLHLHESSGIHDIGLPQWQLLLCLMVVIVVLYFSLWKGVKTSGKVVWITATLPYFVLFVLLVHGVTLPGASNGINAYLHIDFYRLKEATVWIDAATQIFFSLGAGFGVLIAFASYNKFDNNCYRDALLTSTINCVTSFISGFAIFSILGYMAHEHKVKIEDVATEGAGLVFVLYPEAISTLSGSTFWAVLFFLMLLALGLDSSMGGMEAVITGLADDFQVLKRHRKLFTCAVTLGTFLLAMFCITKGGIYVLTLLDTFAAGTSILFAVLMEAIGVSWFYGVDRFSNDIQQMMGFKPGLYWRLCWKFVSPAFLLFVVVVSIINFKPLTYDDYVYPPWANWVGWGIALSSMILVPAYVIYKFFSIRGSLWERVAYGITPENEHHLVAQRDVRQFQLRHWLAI
Test: Noradrenaline (NA) reuptake inhibition in rat brain synaptosomes (hypothalamus, P2 fraction)
Assay type: biochemical
Conditions: read-out: NA reuptake, % inhibition [10 μM]
Structures can show the parent of a compound that is named as a salt.
API: value field is a number in %; no unit string.

Consider the following illustrative entries.
{"Molecule": "COc1ccc(S(=O)(=O)NC2CCC(C(c3ccccc3)N(C)C)CC2)cc1 (stereo not drawn) [compound 107, hydrochloride]", "Unit Descriptor": "%", "inhibition at 10 µM": 78}
{"Molecule": "CCOC(=O)C=C1CCC(C(c2cccc(F)c2)N(C)C)CC1 (stereo not drawn)", "Unit Descriptor": "%", "inhibition at 10 µM": 81}
{"Molecule": "COc1ccc(NC(=O)C=C2CCC(C(c3ccc(C)cc3)N3CCCCC3)CC2)cc1 (stereo not drawn)", "Unit Descriptor": "%", "inhibition at 10 µM": 27}
{"Molecule": "COc1ccc(CNC2CCC(C(c3ccccc3)N(C)C)CC2)cc1 (stereo not drawn) [compound 90, dihydrochloride]", "Unit Descriptor": "%", "inhibition at 10 µM": 98}
{"Molecule": "CN(C)C(c1ccccc1)C1CCC(O)(Cc2ccc(F)cc2)CC1 (stereo not drawn) [compound 148, hydrochloride]", "Unit Descriptor": "%", "inhibition at 10 µM": 97}

Okay, now this molecule:
Lookup: Entry under review: CN(C)C(c1ccc(Cl)cc1)C1CCC(C=O)CC1 (stereo not drawn) . Reported inhibition at 10 µM?
Found: 97
